Where do these numbers come from? They come from patent US20120083522A1.

Tested on: human Factor XI mRNA
PROTOCOL TEXT: Antisense inhibition in HepG2 cells by microwalk gapmers, 75 nM, lipofectin (Example 3)
Type: cell-based
CONDITION: HepG2 cells, 75 nM, oligonucleotides targeted to nucleobases 1275 to 1318 of SEQ ID NO: 1
In the oligonucleotide strings, read from the 5' end, every base follows the letter of its sugar. An asterisk marks phosphorothioate; unmarked linkages are phosphodiester. Other units and linkages are bracketed, terminal groups are in braces. A string of capitals states the bases alone. e = 2'-O-(2-methoxyethyl) (MOE); [5mC] = 5-methylcytosine; d = 2'-deoxy (DNA)
Each entry gets label 0 if its % inhibition of human Factor XI mRNA levels stays under 90%, and label 1 if its % inhibition of human Factor XI mRNA levels is 90% or above.

Solved entries:
{"columns": ["SUBSTANCE", "MEASUREMENT TARGET", "CAT"],
 "data": [
  ["417014 (antisense eG*e[5mC]*dG*dG*dA*d[5mC]*dG*dG*d[5mC]*dA*dT*dT*dG*dG*dT*eG*e[5mC]*eA*e[5mC]*eA) [compound 417014]", "human Factor XI mRNA", "label 0"],
  ["417010 (antisense eA*e[5mC]*dG*dG*d[5mC]*dA*dT*dT*dG*dG*dT*dG*d[5mC]*dA*d[5mC]*eA*eG*eT*eT*eT) [compound 417010]", "human Factor XI mRNA", "label 0"],
  ["417017 (antisense eG*e[5mC]*dA*dG*d[5mC]*dG*dG*dA*d[5mC]*dG*dG*d[5mC]*dA*dT*dT*eG*eG*eT*eG*e[5mC]) [compound 417017]", "human Factor XI mRNA", "label 0"],
  ["417004 (antisense eT*eT*dG*dG*dT*dG*d[5mC]*dA*d[5mC]*dA*dG*dT*dT*dT*d[5mC]*eT*eG*eG*e[5mC]*eA) [compound 417004]", "human Factor XI mRNA", "label 0"],
  ["417013 (antisense e[5mC]*eG*dG*dA*d[5mC]*dG*dG*d[5mC]*dA*dT*dT*dG*dG*dT*dG*e[5mC]*eA*e[5mC]*eA*eG) [compound 417013]", "human Factor XI mRNA", "label 0"]
]}

IN: Would you say 417006 (antisense e[5mC]*eA*dT*dT*dG*dG*dT*dG*d[5mC]*dA*d[5mC]*dA*dG*dT*dT*eT*e[5mC]*eT*eG*eG) [compound 417006] shows % inhibition of human Factor XI mRNA levels at minimum 90%?
OUT: label 0

IN: Would you say 416924 (antisense eG*eT*eG*d[5mC]*dA*d[5mC]*dA*dG*dT*dT*dT*d[5mC]*dT*dG*dG*d[5mC]*dA*eG*eG*e[5mC]) [compound 416924] shows % inhibition of human Factor XI mRNA levels at minimum 90%?
OUT: label 1

IN: Would you say 417018 (antisense eG*eG*d[5mC]*dA*dG*d[5mC]*dG*dG*dA*d[5mC]*dG*dG*d[5mC]*dA*dT*eT*eG*eG*eT*eG) [compound 417018] shows % inhibition of human Factor XI mRNA levels at minimum 90%?
OUT: label 0

IN: Would you say 416856 (antisense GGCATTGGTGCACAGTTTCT; 5-10-5 gapmer, wing sugar chemistry not given here, further chemistry not given here) [compound 416856] shows % inhibition of human Factor XI mRNA levels at minimum 90%?
OUT: label 1

IN: Would you say 416941 (antisense eG*eG*e[5mC]*dA*dG*d[5mC]*dG*dG*dA*d[5mC]*dG*dG*d[5mC]*dA*dT*dT*dG*eG*eT*eG) [compound 416941] shows % inhibition of human Factor XI mRNA levels at minimum 90%?
OUT: label 1

IN: Would you say 416937 (antisense eG*e[5mC]*eG*dG*dA*d[5mC]*dG*dG*d[5mC]*dA*dT*dT*dG*dG*dT*dG*d[5mC]*eA*e[5mC]*eA) [compound 416937] shows % inhibition of human Factor XI mRNA levels at minimum 90%?
OUT: label 1

IN: Would you say 416852 (antisense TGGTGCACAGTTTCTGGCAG; 5-10-5 gapmer, wing sugar chemistry not given here, further chemistry not given here) [compound 416852] shows % inhibition of human Factor XI mRNA levels at minimum 90%?
OUT: label 0

IN: Would you say 416867 (antisense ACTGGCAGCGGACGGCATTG; 5-10-5 gapmer, wing sugar chemistry not given here, further chemistry not given here) [compound 416867] shows % inhibition of human Factor XI mRNA levels at minimum 90%?
OUT: label 0

IN: Would you say 417021 (antisense eA*e[5mC]*dT*dG*dG*d[5mC]*dA*dG*d[5mC]*dG*dG*dA*d[5mC]*dG*dG*e[5mC]*eA*eT*eT*eG) [compound 417021] shows % inhibition of human Factor XI mRNA levels at minimum 90%?
OUT: label 0

###

Quick list: percent inhibition of human Factor XI mRNA per entry.
System: human Factor XI mRNA
PROTOCOL TEXT: Dose-dependent inhibition in HepB3 cells, electroporation (Example 7)
Format: cell-based
CONDITION: 41.15 nM, approx. 16 h

Recorded results for 4 substances are shown here.
{"columns": ["SUBSTANCE", "RECORDED MEASUREMENT"],
 "data": [
  ["416850 (antisense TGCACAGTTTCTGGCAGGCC; 5-10-5 gapmer, wing sugar chemistry not given here, further chemistry not given here) [compound 416850]", "26%"],
  ["417002 (antisense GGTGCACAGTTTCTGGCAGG; 2-13-5 gapmer, wing sugar chemistry not given here, further chemistry not given here) [compound 417002]", "19%"],
  ["417003 (antisense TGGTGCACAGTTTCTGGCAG; 2-13-5 gapmer, wing sugar chemistry not given here, further chemistry not given here) [compound 417003]", "31%"],
  ["416826 (antisense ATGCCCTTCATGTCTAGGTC; 5-10-5 gapmer, wing sugar chemistry not given here, further chemistry not given here) [compound 416826]", "0%"]
]}

IN: I have this substance here, 416999 (antisense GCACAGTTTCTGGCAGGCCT; 2-13-5 gapmer, wing sugar chemistry not given here, further chemistry not given here) [compound 416999] , and I need its recorded percent inhibition of human Factor XI mRNA.
OUT: 31%

###

Tested on: IL-1β, IL-6, IFN-γ, TNF-α, IL-8, MIP-1α, MCP-1, MIP-10, RANTES
PROTOCOL TEXT: Cynomolgus monkeys: cytokine and chemokine assays (Example 30)
Format: in vivo
CONDITION: 25 mg/kg s.c.; day 55
In the oligonucleotide strings, read from the 5' end, every base follows the letter of its sugar. An asterisk marks phosphorothioate; unmarked linkages are phosphodiester. Other units and linkages are bracketed, terminal groups are in braces. A string of capitals states the bases alone. e = 2'-O-(2-methoxyethyl) (MOE); [5mC] = 5-methylcytosine; d = 2'-deoxy (DNA)
Rule: IL-1β level below 200 pg/mL gives criterion met, anything at or above gives criterion not met.

IN: Lab log: compare recorded IL-1β level with 200 pg/mL; is it strictly lower for ISIS 449711: microwalk gapmer of Table 53 (antisense eA*e[5mC]*dA*dG*dT*dT*dT*d[5mC]*dT*dG*dG*d[5mC]*eA*eG) ?
OUT: criterion met

IN: Lab log: compare recorded IL-1β level with 200 pg/mL; is it strictly lower for ISIS 449709: microwalk gapmer of Table 53 (antisense eG*e[5mC]*eA*e[5mC]*dA*dG*dT*dT*dT*d[5mC]*dT*dG*dG*d[5mC]*eA*eG*eG*e[5mC]) ?
OUT: criterion met

IN: Lab log: compare recorded IL-1β level with 200 pg/mL; is it strictly lower for ISIS 449710: microwalk gapmer of Table 53 (antisense e[5mC]*eA*e[5mC]*dA*dG*dT*dT*dT*d[5mC]*dT*dG*dG*d[5mC]*eA*eG*eG) ?
OUT: criterion not met

IN: Lab log: compare recorded IL-1β level with 200 pg/mL; is it strictly lower for ISIS 416850: gapmer of Table 8 (antisense eT*eG*e[5mC]*eA*e[5mC]*dA*dG*dT*dT*dT*d[5mC]*dT*dG*dG*d[5mC]*eA*eG*eG*e[5mC]*e[5mC]) ?
OUT: criterion met

IN: Lab log: compare recorded IL-1β level with 200 pg/mL; is it strictly lower for ISIS 449708: microwalk gapmer of Table 53 (antisense eA*e[5mC]*eA*dG*dT*dT*dT*d[5mC]*dT*dG*dG*e[5mC]*eA*eG) ?
OUT: criterion met

###

PROTOCOL TEXT: Cynomolgus monkeys: hematology assays (Example 29)
Assay type: in vivo
CONDITION: day −14
In the oligonucleotide strings, read from the 5' end, every base follows the letter of its sugar. An asterisk marks phosphorothioate; unmarked linkages are phosphodiester. Other units and linkages are bracketed, terminal groups are in braces. A string of capitals states the bases alone. e = 2'-O-(2-methoxyethyl) (MOE); [5mC] = 5-methylcytosine; d = 2'-deoxy (DNA)
Rule: platelet count below 400000 µL⁻¹ gives T, anything at or above gives F.

Solved entries:
{"columns": ["SUBSTANCE", "CAT"],
 "data": [
  ["ISIS 416850: gapmer of Table 8 (antisense eT*eG*e[5mC]*eA*e[5mC]*dA*dG*dT*dT*dT*d[5mC]*dT*dG*dG*d[5mC]*eA*eG*eG*e[5mC]*e[5mC])", "F"],
  ["ISIS 416858: gapmer of Table 8 (antisense eA*e[5mC]*eG*eG*e[5mC]*dA*dT*dT*dG*dG*dT*dG*d[5mC]*dA*d[5mC]*eA*eG*eT*eT*eT)", "F"],
  ["ISIS 417002: gapmer of Table 8 (antisense eG*eG*dT*dG*d[5mC]*dA*d[5mC]*dA*dG*dT*dT*dT*d[5mC]*dT*dG*eG*e[5mC]*eA*eG*eG)", "F"]
]}

IN: Lab log: compare recorded platelet count with 400000 µL⁻¹; is it strictly lower for ISIS 416864: gapmer of Table 8 (antisense eG*eG*e[5mC]*eA*eG*d[5mC]*dG*dG*dA*d[5mC]*dG*dG*d[5mC]*dA*dT*eT*eG*eG*eT*eG) ?
OUT: F

IN: Lab log: compare recorded platelet count with 400000 µL⁻¹; is it strictly lower for ISIS 416838: gapmer of Table 6 (antisense eG*e[5mC]*eA*eA*e[5mC]*d[5mC]*dG*dG*dG*dA*dT*dG*dA*dT*dG*eA*eG*eT*eG*e[5mC]) ?
OUT: T
